METHOD_NOTES: TOX21_p53_BLA_p4_viability: Viability Assessment in the Tox21 HCT-116 p53 Agonism Beta-lactamase Assay, Phase 4 (AID 2283597);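 further: hits lower the luminescence signal meaning cytotoxicity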
Results filed as inconclusive are left out. The source made the active and inactive calls. How the source made its calls: active means hit-call score of the fitted dose curve at least 0.9, where 1 is the maximum; inconclusive means response in the unintended direction; inactive means score below 0.9.
Pick one: yes (1) for active, no (0) for inactive

q: Hi, sorry to bother you, what did the test record for Nc1cc(Cl)cc(C(=O)O)c1Cl ?
a: no (0)

q: Hi, sorry to bother you, what did the test record for CC(C)(O)c1cnn2c(-c3ccc(F)c(-c4c(F)cccc4C#N)c3)cnc2n1 ?
a: no (0)

q: Hi, sorry to bother you, what did the test record for Cc1ccc(N)c(N)c1 ?
a: no (0)

q: Hi, sorry to bother you, what did the test record for ClCCOCCCl ?
a: no (0)

q: Hi, sorry to bother you, what did the test record for Nc1ccc(N=Nc2ccccc2)cc1 ?
a: no (0)

q: Hi, sorry to bother you, what did the test record for O=Cc1ccco1 ?
a: no (0)

q: Hi, sorry to bother you, what did the test record for CCCCOC(=O)c1ccccc1C(=O)OCc1ccccc1 ?
a: no (0)

q: Hi, sorry to bother you, what did the test record for O=C1CCCO1 ?
a: no (0)

q: Hi, sorry to bother you, what did the test record for N#CC(Br)(Br)C(N)=O ?
a: yes (1)

q: Hi, sorry to bother you, what did the test record for Cc1ccc(N)cc1 ?
a: no (0)

q: Hi, sorry to bother you, what did the test record for O=C(Oc1ccc(Br)cc1)N1CCN2CCC1CC2 ?
a: no (0)

q: Hi, sorry to bother you, what did the test record for Oc1ccc2ccc3cccc4ccc1c2c34 ?
a: no (0)

q: Hi, sorry to bother you, what did the test record for CCCCCOC(=O)c1ccccc1C(=O)OCCCCC ?
a: no (0)

q: Hi, sorry to bother you, what did the test record for CCN(CC)N=O ?
a: no (0)

q: Hi, sorry to bother you, what did the test record for CCCSC(=O)N(CCC)CCC ?
a: no (0)

q: Hi, sorry to bother you, what did the test record for OCCCBr ?
a: no (0)
